Data origin: ChEMBL document CHEMBL5360601

Heads up, these molecules all have IC50 values measured for Diacylglycerol kinase beta (Homo sapiens).
measure name: IC50

> print(dat)
                              sample.smiles                             tested.system  measure.name  observed.value
1  O=c1c2ccccc2[nH]c(=S)n1CCN1CCC(=C(c2ccc(F)cc2)c2ccc(F)cc2)CC1  Diacylglycerol kinase beta (Homo sapiens)          IC50      > 10000 nM
2  Cn1c(=O)c([N+](=O)[O-])c(N2CCN(C(c3ccc(F)cc3)c3ccc(F)cc3)CC2)c2nc(C#N)ccc21  Diacylglycerol kinase beta (Homo sapiens)          IC50         1000 nM
